# System: pigweed
# assay.details: Test B pre-/postemergence herbicide test
# Format: in vivo, Amaranthus retroflexus
# stated.conditions: 500 g ai/ha; visual rating 0-100, 0 no effect, 100 complete control; preemergence
assay.endpoint: Plant response rating, Pigweed

molecule | target.system | assay.endpoint | quantitative.result
CC(=NO)c1cccc(NC(=O)c2cc(C(C)(C)C)nn2C(C)C)c1 [Compound 110] | pigweed | Plant response rating, Pigweed | 10
CCNC(=O)c1cccc(NC(=O)c2sc(C(C)(C)C)nc2C)c1 [Compound 198] | pigweed | Plant response rating, Pigweed | 100
CCOC(=O)c1cc(NC(=O)c2cc(C(C)(C)C)nn2CC)ccc1OC [Compound 96] | pigweed | Plant response rating, Pigweed | 100
CC(=NO)c1cccc(NC(=O)c2sc(C(C)(C)C)nc2C)c1 [Compound 195] | pigweed | Plant response rating, Pigweed | 90
CC(C)NS(=O)(=O)c1cccc(NC(=O)c2cc(C(C)(C)C)nn2C)c1 [Compound 124] | pigweed | Plant response rating, Pigweed | 90

----------
# Test system: lambsquarters
# assay.details: Test B pre-/postemergence herbicide test
# Assay type: in vivo, Chenopodium album
# stated.conditions: Postemergence, 500 g ai/ha; scale 0 (no effect) to 100 (complete control)

smi | target.system | Lambsquarters plant response rating
CCc1nn(C(C)C)nc1C(=S)Nc1cccc(C(=S)N(C)C)c1 | lambsquarters | 70
Cc1nn(C(C)(C)C)nc1C(=O)Nc1cc(C(=O)N(C)C)ccn1 | lambsquarters | 70
CCNC(=O)c1cccc(NC(=O)c2nn(C(C)(C)C)nc2Br)c1 | lambsquarters | 70

----------
# Tested on: blackgrass
# assay.details: Test B postemergence herbicide test
# Format: in vivo, Alopecurus myosuroides
# stated.conditions: Postemergence, 500 g ai/ha; visual rating after 13 to 15 days, scale 0 (no effect) to 100 (complete control)
assay.endpoint: Plant response rating, Blackgrass

smi | quantitative.result
CCOC(=O)c1ccc(F)c(NC(=O)c2cc(C(C)(C)C)nn2CC)c1 | 20
C=CCNC(=O)c1cccc(NC(=O)c2cc(C(C)(C)C)nn2CC)c1 | 20
CC(=NO)c1cccc(NC(=O)c2cc(C(C)(C)C)nn2CCF)c1 | 20
CCOC(=O)c1cc(NC(=O)c2cc(C(C)(C)C)nn2CC)ccc1OC | 20
CCCCOC(=O)c1cccc(NC(=O)c2cc(C(C)(C)C)nn2CC)c1 | 20
C=Cn1nc(C(C)(C)C)cc1C(=O)Nc1cccc(C(=O)NCC)c1 | 20

----------
Measured Plant response rating, Kochia values are reported for all entries that follow.
# Test system: kochia
# assay.details: Test C pre-/postemergence herbicide test
# Type: in vivo, Kochia scoparia
# stated.conditions: 125 g ai/ha; scale 0 (no effect) to 100 (complete control); visual, 12 to 14 days; preemergence

smi | Plant response rating, Kochia
C=CCNC(=O)c1cccc(NC(=O)c2sc(C(C)(C)C)nc2CC)c1 | 90
CCn1nc(C(C)(C)C)cc1C(=S)Nc1cc(C(=S)N(C)C)ccc1F | 100
CCc1nn(C(C)(C)C)cc1C(=O)Nc1cc(C(=O)N(C)C)ccn1 | 100
CCCN1CCc2c(NC(=O)c3cc(C(C)(C)C)nn3CC)cccc2C1=O | 70
CCNC(=O)c1cccc(NC(=O)c2sc(C(C)(C)C)nc2CC)c1 | 90
CC(=NO)c1cccc(NC(=O)c2cc(C(C)(C)C)nn2CCF)c1 | 100
CCN(C)C(=O)c1cccc(NC(=O)c2cc(C(C)(C)C)nn2CC)c1 | 60
